Task for the reader: assign each of the following compounds its reported inhibition.
# measured on: L-lactate dehydrogenase (Plasmodium falciparum (isolate CDC / Honduras)) (UniProt Q27743)
# Sequence (Q27743 whole entry, looked up): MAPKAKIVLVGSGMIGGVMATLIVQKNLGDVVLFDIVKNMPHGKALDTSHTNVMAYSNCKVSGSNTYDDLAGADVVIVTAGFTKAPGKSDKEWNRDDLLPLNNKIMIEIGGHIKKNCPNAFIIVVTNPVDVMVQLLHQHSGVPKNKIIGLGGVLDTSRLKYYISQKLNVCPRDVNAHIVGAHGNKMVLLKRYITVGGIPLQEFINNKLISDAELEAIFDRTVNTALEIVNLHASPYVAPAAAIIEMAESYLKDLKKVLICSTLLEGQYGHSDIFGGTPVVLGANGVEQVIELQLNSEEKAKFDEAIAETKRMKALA
# experiment notes: PfLDH activity inhibition – cell lysate, 3D7 strain, counter-screen for P. falciparum growth inhibition project (AID 2304);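 also: 0% = vehicle and 100% = reference inhibitor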
# condition description: P. falciparum 3D7 crude extract, LDH APAD/NBT absorbance; at 2 µM; hits give high values
One number for each entry, in %.

| compound | inhibition [%] |
| --- | --- |
| CCN(CC)CCNC(=O)c1ccc(Nc2ncc([N+](=O)[O-])c(Nc3ccccc3OC)n2)cc1 | -6 |
| OC(c1cc(C(F)(F)F)nc2c(C(F)(F)F)cccc12)C1CCCCN1 (centres undefined) | -6 |
| COC(=O)C(C)(C)Cc1c(SC(C)(C)C)c2cc(C(C)C)ccc2n1Cc1ccc(Cl)cc1 | 0 |
| O=C(Nc1c(F)cccc1F)c1cccc(-c2nn3ccccc3c2-c2ccnc(Nc3cccc(-c4cnco4)c3)n2)c1 | -6 |
| Cc1nc(C)c(-c2ccc(Oc3ccc(OC(F)(F)F)cc3)cc2)c(OC(=O)c2ccc(CN(C)C)cc2)c1Cl | 6 |
| COc1ccc(N(C)Cc2cnc3nc(N)nc(N)c3n2)cc1 | 1 |
| Cc1ccc(Nc2cc(C)nn2-c2nc(C)cc(=O)[nH]2)cc1 | -3 |
| O=C(O)c1cccnc1Sc1ccc(Cl)cc1 | 3 |
| C#CCNC(=O)c1ccc(-c2ccnc(Nc3cccc(CCCN4CCOCC4)c3)n2)s1 | -4 |
| NS(=O)(=O)Cc1cccc(-c2ccnc3ccc(-c4cccc(S(N)(=O)=O)c4)cc23)c1 | -2 |

Hey, quick one: what's inhibition for each of these?
1. CCn1c(-c2nonc2N)nc2c(-c3ccc(CO)o3)ncc(OCCCN)c21
2. O=C(/C=C/c1ccc(Cl)c(Cl)c1)NCCCCCN1CCC(NC(=O)NC2CCCCC2)CC1

Outgoing:
[-3, -1]

# batch: return inhibition for each of the 5 compounds below
1. CC(C)c1ccc(NC(=O)c2cccc(CN3CCCN(Cc4cccc(O)c4)CC3)c2)cc1
2. CCC(C)c1cnc2nc(N)nc(N)c2c1C (centres undefined)
3. CCCCCCCN1CC[C@@H](CCCc2ccnc3ccc(OC)cc23)[C@@H](CNC)C1
4. C=C(C)Cn1cc(C2CCN(CCN3CCC(CNC(=O)c4ccc(-c5ccc(C#N)cc5)cc4)CC3)CC2)c2ccccc21
5. NC(=O)c1ccccc1Nc1nc(Nc2ccn[nH]2)ncc1Cl

Outgoing:
-2
-3
-2
-3
-4

List reported inhibition for each of these compounds:
1. COc1ccc(CN2CCC(C(=O)Nc3cccc(-c4cccc(Cl)c4)c3)CC2)cc1O
2. COc1ccc2nc3cc(Cl)ccc3c(Nc3ccc(Oc4ccc(Nc5c6ccc(Cl)cc6nc6ccc(OC)cc56)cc4)cc3)c2c1
3. CCNC(=NCc1ccccc1)NCCCCCCNC(=NCc1ccccc1)NCC
4. COc1cccc2cc(C(=O)N[C@@H](CC(C)C)C(=O)N[C@H](/C=N/NC(=O)OC(C)(C)C)CC(C)C)oc12
5. CN1CCN(Cc2ccc(-c3ccc4c(Nc5cc(O)c(Cl)cc5F)ccnc4c3)o2)CC1
6. N=C(N)CCN(Cc1ccc(Cl)cc1)c1ccc(Cl)cc1
7. Cc1cc(N(CCN2CCCCC2)CCN2CCCCC2)nc(Nc2ccc(Cl)cc2)n1

Outgoing:
1: -2; 2: 7; 3: -5; 4: -2; 5: -4; 6: 5; 7: -4

Would you be so kind as to report inhibition for each listed record?
1. Nc1nc2ccc(CNc3ccc(C(=O)N[C@@H](CCC(=O)O)C(=O)O)cc3)cc2c(=O)[nH]1
2. Nc1nc(N)c2c3c(ccc2n1)CCC3
3. Cc1[nH]c(C)c(-c2ccc(Oc3ccc(S(C)=O)cc3)cc2)c(=O)c1Br (centres undefined)
4. CC1CCC(C[C@@H](C(=O)N[C@H](C(=O)Nc2nccs2)[C@@H](C)O)[C@H](CCC(F)(F)F)N(O)C=O)CC1 (some centres undefined)
5. O=C(NCc1cccc(F)c1)Nc1cccc(-c2cccc(-c3nc4ccc(C(F)(F)F)cc4[nH]3)c2)c1
6. Cc1[nH]c(C)c(-c2ccc(Oc3ccc(C(F)(F)F)cc3)cc2)c(=O)c1Br
7. O=C(/C=C/c1ccc(-c2nc3cc(F)c(F)cc3[nH]2)cc1)NCc1ccc(Cl)c(Cl)c1
8. CC(C)CN1C(=O)C(c2ccc(F)c(F)c2)=C(O)C1c1ccccc1 (centres undefined)

Outgoing:
3
-3
0
3
-7
-8
4
-7
